Numbers sourced from patent US8178668B2.

In this section, each of the compounds is paired with its reported pIC50.
target: RON (human) (Homo sapiens, UniProt Q04912)
Sequence (Q04912 25-1400): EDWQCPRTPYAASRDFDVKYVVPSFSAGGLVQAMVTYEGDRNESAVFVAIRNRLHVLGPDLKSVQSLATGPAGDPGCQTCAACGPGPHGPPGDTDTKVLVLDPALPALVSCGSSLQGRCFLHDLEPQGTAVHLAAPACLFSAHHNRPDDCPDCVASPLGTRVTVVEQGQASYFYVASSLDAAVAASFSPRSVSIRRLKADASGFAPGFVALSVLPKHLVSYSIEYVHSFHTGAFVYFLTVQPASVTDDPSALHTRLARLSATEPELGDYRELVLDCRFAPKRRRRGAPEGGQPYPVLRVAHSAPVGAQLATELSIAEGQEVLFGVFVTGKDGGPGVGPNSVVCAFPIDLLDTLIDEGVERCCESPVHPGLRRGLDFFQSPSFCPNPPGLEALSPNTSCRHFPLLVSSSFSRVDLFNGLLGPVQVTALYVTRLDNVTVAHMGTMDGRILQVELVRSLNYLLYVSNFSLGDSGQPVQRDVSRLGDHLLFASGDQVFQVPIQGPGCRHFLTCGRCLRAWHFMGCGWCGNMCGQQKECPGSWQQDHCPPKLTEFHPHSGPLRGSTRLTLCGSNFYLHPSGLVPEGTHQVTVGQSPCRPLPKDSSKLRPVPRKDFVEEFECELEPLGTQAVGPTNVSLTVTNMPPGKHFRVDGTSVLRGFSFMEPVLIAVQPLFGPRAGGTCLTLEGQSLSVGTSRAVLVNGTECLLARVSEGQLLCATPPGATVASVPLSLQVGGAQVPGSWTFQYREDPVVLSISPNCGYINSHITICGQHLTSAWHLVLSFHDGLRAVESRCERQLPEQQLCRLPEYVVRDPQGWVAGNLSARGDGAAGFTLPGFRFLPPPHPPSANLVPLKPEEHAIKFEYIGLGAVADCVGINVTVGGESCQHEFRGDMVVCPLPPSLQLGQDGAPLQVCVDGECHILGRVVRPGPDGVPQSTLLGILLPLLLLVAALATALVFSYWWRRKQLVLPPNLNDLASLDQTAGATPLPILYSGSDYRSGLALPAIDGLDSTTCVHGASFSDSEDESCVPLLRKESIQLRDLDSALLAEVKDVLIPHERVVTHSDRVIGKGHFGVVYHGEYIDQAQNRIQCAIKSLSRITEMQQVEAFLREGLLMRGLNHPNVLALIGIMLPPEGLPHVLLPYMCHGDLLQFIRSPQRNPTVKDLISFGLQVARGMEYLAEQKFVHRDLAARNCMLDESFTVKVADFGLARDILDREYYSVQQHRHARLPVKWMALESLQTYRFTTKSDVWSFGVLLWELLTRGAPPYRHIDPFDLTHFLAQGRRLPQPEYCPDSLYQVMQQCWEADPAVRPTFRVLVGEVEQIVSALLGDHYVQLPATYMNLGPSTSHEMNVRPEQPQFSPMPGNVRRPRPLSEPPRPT
pIC50: −log10 of the molar value. Counter-ions that a name gives are not always drawn.

Nc1ncc(-c2cnn(C3CCNCC3)c2)cc1-c1oc2ccccc2c1-c1ccccc1 = 4.70 to 6.00
Nc1ncc(-c2cnn(C3CCNCC3)c2)cc1-c1cc2c(O)cccc2cn1 [Example 27, tri-hydrochloride salt] = 6.00 to 7.00
N#Cc1cccc2sc(-c3cc(-c4cnn(C5CCNCC5)c4)cnc3N)nc12 = 6.00 to 7.00
CCN(CC)CCNC(=O)c1cccc(-c2cnc(N)c(-c3nc4ccccc4s3)c2)c1 = 4.70 to 6.00
Nc1ncc(-c2cnn(C3CCNCC3)c2)cc1-c1cc2cc(F)cc(Cl)c2cn1 [Example 47, trihydrochloride salt] = 6.00 to 7.00

RON (human) (Homo sapiens, UniProt Q04912) assay, compound CN(C)CCNC(=O)c1ccc(-c2cnc(N)c(-c3nc4ccccc4s3)c2)cc1 , recorded pIC50 = 4.70 to 6.00

RON (human) (Homo sapiens, UniProt Q04912) assay, compound Nc1ncc(C#CCNC(=O)CN2CCCC2)cc1-c1nc2ccccc2s1 , recorded pIC50 = 4.70 to 6.00

RON (human) (Homo sapiens, UniProt Q04912) assay, compound Nc1ncc(-c2cnn(C3CNC3)c2)cc1-c1nc2ccccc2s1 [Example 181, trifluoroacetate] , recorded pIC50 = 6.00 to 7.00

RON (human) (Homo sapiens, UniProt Q04912) assay, compound NC(=O)NCC#Cc1cnc(N)c(-c2nc3ccccc3s2)c1 , recorded pIC50 = 4.70 to 6.00

RON (human) (Homo sapiens, UniProt Q04912) assay, compound Cn1cc(-c2cnc(N)c(-c3cc4ccccc4o3)c2)cn1 [Example 101, bis-hydrochloride] , recorded pIC50 = 4.70 to 6.00

RON (human) (Homo sapiens, UniProt Q04912) assay, compound Cn1cc(-c2cccc3nc(-c4cc(-c5cnn(C6CCNCC6)c5)cnc4N)sc23)cn1 [Example 248, dihydrochloride] , recorded pIC50 = 6.00 to 7.00

RON (human) (Homo sapiens, UniProt Q04912) assay, compound CC(C(=O)N1CCC(O)C1)n1cc(-c2cnc(N)c(-c3nc4ccccc4s3)c2)cn1 (centres unmarked) , recorded pIC50 = 4.70 to 6.00

RON (human) (Homo sapiens, UniProt Q04912) assay, compound Nc1ncc(-c2cnn(C3CCNCC3)c2)cc1-c1cc2c(-c3ccccc3)ccc(F)c2cn1 , recorded pIC50 = 6.00 to 7.00

RON (human) (Homo sapiens, UniProt Q04912) assay, compound Nc1ncc(C2=CCNCC2)cc1-c1nc2ccccc2s1 , recorded pIC50 = 4.70 to 6.00

RON (human) (Homo sapiens, UniProt Q04912) assay, compound Nc1ncc(-c2cnn([C@H]3CCNC3)c2)cc1-c1cc2c(Cl)ccc(F)c2cn1 [Example 63, trihydrochloride] , recorded pIC50 = 6.00 to 7.00

RON (human) (Homo sapiens, UniProt Q04912) assay, compound COc1ccc(Cl)c2cc(-c3cc(-c4cnn(C5CCNCC5)c4)cnc3N)ncc12 [Example 12, trihydrochloride] , recorded pIC50 = 4.70 to 6.00

RON (human) (Homo sapiens, UniProt Q04912) assay, compound Nc1ncc(-c2cccc(C(=O)N3CCC(F)(F)C3)c2)cc1-c1nc2ccccc2s1 , recorded pIC50 = 4.70 to 6.00
